These data points were gathered from ChEMBL document CHEMBL1145427.

# System: Thyroid gland
# experiment notes: Biodistribution in ICR mouse thyroid at 5 to 10 uCi, iv after 30 mins
# Assay type: ADME, organism-based
# test settings: in vivo, 0.5 h
Catalogue of compounds with associated Drug uptake

Some compounds with known Drug uptake results, for comparison:
Note to self: Drug uptake of CNc1ccc(-c2cn(-c3ccc([125I])cc3)nn2)cc1 with Thyroid gland was 11.5 % ID/g

Readout Drug uptake for CN(C)c1ccc(-c2cn(-c3ccc(OCCC[18F])cc3)nn2)cc1 , test system Thyroid gland, was 9.62 % ID/g

Thyroid gland data for CN(C)c1ccc(-c2cn(-c3ccc([125I])cc3)nn2)cc1 ; its Drug uptake: 11 % ID/g

Now look at this one.
For CN(C)c1ccc(-c2cn(-c3ccc(OCC[18F])cc3)nn2)cc1 on Thyroid gland, measured Drug uptake was 1.89 % ID/g

---

# System: Heart
# experiment notes: Biodistribution in ICR mouse heart at 5 to 10 uCi, iv after 2 hrs
# Format: ADME, organism-based
# test settings: in vivo
Each record here notes measured Drug uptake.
Give your result in % ID/g as a bare value.

Worked set:
// Drug uptake (Heart) for CN(C)c1ccc(-c2cn(-c3ccc(OCC[18F])cc3)nn2)cc1 = 1.83

Tested system Heart; Drug uptake recorded for CN(C)c1ccc(-c2cn(-c3ccc(OCCC[18F])cc3)nn2)cc1 was 0.23

// compound CN(C)c1ccc(-c2cn(-c3ccc([125I])cc3)nn2)cc1 , assay Heart, Drug uptake value: 0.56

Let's switch to this compound now.
Observed Drug uptake, Heart, CNc1ccc(-c2cn(-c3ccc([125I])cc3)nn2)cc1 : 0.89

---

# System: Blood
# experiment notes: Biodistribution in ICR mouse blood at 5 to 10 uCi, iv after 2 mins
# Format: ADME, organism-based
# test settings: in vivo
endpoint name: Drug uptake (% ID/g)
Entry rule: numbers only, all in % ID/g.

Some solved cases for reference:
According to the records, this compound CN(C)c1ccc(-c2cn(-c3ccc([125I])cc3)nn2)cc1 displays Drug uptake of 2.84

The compound CNc1ccc(-c2cn(-c3ccc([125I])cc3)nn2)cc1 showed Drug uptake equal to 4.45

Per the record, CN(C)c1ccc(-c2cn(-c3ccc(OCC[18F])cc3)nn2)cc1 has Drug uptake of 2.63

New cases:
Drug uptake reading for CN(C)c1ccc(-c2cn(-c3ccc(OCCC[18F])cc3)nn2)cc1 : 3.23

---

Measured Drug uptake of individual entries
# System: Muscle tissue
# experiment notes: Biodistribution in ICR mouse muscle at 5 to 10 uCi, iv after 1 hr
# Assay type: ADME, organism-based
# test settings: in vivo
Give your result in % ID/g as a bare value.

So, CN(C)c1ccc(-c2cn(-c3ccc([125I])cc3)nn2)cc1 ? Its Drug uptake was 0.61

// Drug uptake lookup, compound = CN(C)c1ccc(-c2cn(-c3ccc(OCCC[18F])cc3)nn2)cc1 , result: 0.36

Noted for CNc1ccc(-c2cn(-c3ccc([125I])cc3)nn2)cc1 : its Drug uptake reads 0.56

We next turn to a different compound, shown below.
Documented Drug uptake of CN(C)c1ccc(-c2cn(-c3ccc(OCC[18F])cc3)nn2)cc1 : 1.33

---

# System: Blood
# experiment notes: Biodistribution in ICR mouse blood at 5 to 10 uCi, iv after 2 hrs
# Assay type: ADME, organism-based
# test settings: in vivo
endpoint name: Drug uptake (% ID/g)
The answer is to be given in % ID/g; state only the numeric part.

Check out these entries, answers already filled in.
Readout Drug uptake for CN(C)c1ccc(-c2cn(-c3ccc(OCCC[18F])cc3)nn2)cc1 , test system Blood, was 0.31

Summary line: CN(C)c1ccc(-c2cn(-c3ccc(OCC[18F])cc3)nn2)cc1 , Blood, reported Drug uptake = 2.3

Measured on Blood, CN(C)c1ccc(-c2cn(-c3ccc([125I])cc3)nn2)cc1 has a documented Drug uptake of 1.21

Now look at this one.
Kindly note: Blood, CNc1ccc(-c2cn(-c3ccc([125I])cc3)nn2)cc1 , Drug uptake value reported: 2.06
